tested on: Uncinula necator; experiment: Grape Powdery Mildew (UNCINE) fungicidal activity; type: in vivo; settings: Erysiphe necator, 24 h, 1DP (1 Day Protectant), read-out: UNCINE Disease Control
Each entry below carries its reported pest or weed control at 100 ppm.

Structure: CCCCO[C@H]1CCOC[C@H](NC(=O)c2nccc(OC)c2OCOC(C)=O)C(=O)O[C@@H](C)[C@@H]1OC(=O)c1ccccc1
pest or weed control at 100 ppm: < 80%
--
Structure: COc1ccnc(C(=O)N[C@H]2CCOC[C@H](Oc3ccccc3)[C@@H](Oc3ccccc3)[C@H](C)OC2=O)c1OCOC(C)=O
pest or weed control at 100 ppm: > 80%
--
Structure: CCCO[C@H]1[C@H](C)OC(=O)[C@@H](NC(=O)c2nccc(OC)c2OCOC(C)=O)CCCC[C@@H]1Oc1ccccc1
pest or weed control at 100 ppm: < 80%
--
Structure: CCCCO[C@H]1CCOC[C@H](NC(=O)c2nccc(OC)c2OCOC(C)=O)C(=O)O[C@@H](C)[C@@H]1OC(=O)C(C)C
pest or weed control at 100 ppm: < 80%
--
Structure: CCCCO[C@H]1CCOC[C@H](NC(=O)c2nccc(OC)c2OCOC(C)=O)C(=O)O[C@@H](C)[C@@H]1OC(=O)C1CC1
pest or weed control at 100 ppm: < 80%
--
Structure: CCCCO[C@H]1CCOC[C@H](NC(=O)c2nccc(OC)c2OCOC(C)=O)C(=O)O[C@@H](C)[C@@H]1OCc1ccccc1
pest or weed control at 100 ppm: < 80%
--
Structure: COc1ccnc(C(=O)N[C@H]2COCC[C@H](Cc3ccccc3)[C@@H](OCC(C)C)[C@H](C)OC2=O)c1OC(C)=O
pest or weed control at 100 ppm: > 80%
--
Structure: COc1ccnc(C(=O)N[C@H]2COCC[C@@H](OCC(C)C)[C@@H](OCC(C)C)[C@H](C)OC2=O)c1OCOC(C)=O
pest or weed control at 100 ppm: < 80%

Data request: Give the measured pest or weed control at 100 ppm of COc1ccnc(C(=O)N[C@H]2COCC[C@H](Cc3ccccc3)[C@@H](OCC(C)C)[C@H](C)OC2=O)c1OCOC(C)=O .
Data returned: > 80%

Data request: Please give the measured pest or weed control at 100 ppm for this molecule: COc1ccnc(C(=O)N[C@H]2CCCC[C@H](Oc3ccccc3)[C@@H](Oc3ccccc3)[C@H](C)OC2=O)c1OCOC(C)=O
Data returned: < 80%

Data request: Query: pest or weed control at 100 ppm; subject: CCCCCO[C@H]1[C@H](C)OC(=O)[C@@H](NC(=O)c2nccc(OC)c2OCOC(C)=O)CCCC[C@@H]1Oc1ccccc1
Data returned: > 80%
